test system: SK-OV-3 ovarian; assay: NCI tumour cell line growth inhibition, 48 h
For each entry below, report its TGI value.

Prompt line: Find the measured TGI of O=C(C(O)c1cn(Cc2ccccc2)c2ccccc12)N1CCCCC1 (stereo not given) and report it.
Response line: > 100 µM

Prompt line: Find the measured TGI of CSc1ncc2c(n1)-c1ccccc1OC2N1CCCC1 (stereo not given) and report it.
Response line: > 100 µM

Prompt line: Find the measured TGI of Cc1nn(C(=O)c2ccccc2O)c2c1C(c1ccccc1)SC(N)=N2 (stereo not given) and report it.
Response line: > 10 µM

Prompt line: Find the measured TGI of N#CCCN(CCCN(C(=O)Nc1ccccc1)c1ccccc1)C(=O)Nc1ccccc1 and report it.
Response line: > 100 µM

Prompt line: Find the measured TGI of COC1/C=C/C(C)C(C(C)C(OC)C(C)CCC(=O)C(C)C(CCC(=O)O)OC)OC(=O)/C=C/C=C(\C)CC(OC)CC2=CC(=O)O[C@@H](C(C)C(OC)CC(OC)/C=C/C(C)C(OC)C1)[C@H]2O (stereo not given in full) and report it.
Response line: 4.06 µM

Prompt line: Find the measured TGI of CC(=O)O[C@H]1C(N(C)C(=O)c2ccccc2)CC[C@]2(C)C3CC[C@@]4(C)C(CC(O)[C@@H]4C(C)N(C)C)[C@@H]3CCC12 (stereo not given in full) and report it.
Response line: > 100 µM

Prompt line: Find the measured TGI of COc1ccc2c(c1)C(=O)CC(N)C2 (stereo not given) and report it.
Response line: > 100 µM

Prompt line: Find the measured TGI of O=c1cc(-c2ccccc2)[nH]c2cc(Cl)cc(Cl)c12 and report it.
Response line: 59.4 µM

Prompt line: Find the measured TGI of O=c1[nH]nc(Cc2ccc(Cl)cc2)n1O and report it.
Response line: > 100 µM

Prompt line: Find the measured TGI of CN(C)c1ccc(/C=C2\Oc3cc(O)ccc3C2=O)cc1 and report it.
Response line: > 100 µM

Prompt line: Find the measured TGI of CSc1nncc(-c2cc3c(c(SC)n2)CCC3)n1 and report it.
Response line: > 100 µM

Prompt line: Find the measured TGI of O=C1C=CC(=O)c2ncccc21 and report it.
Response line: 37.2 µM

Prompt line: Find the measured TGI of COc1cc(-c2cc(=O)c3cc4c(cc3[nH]2)OCO4)cc(OC)c1OC and report it.
Response line: > 100 µM

Prompt line: Find the measured TGI of O=c1ccn(C2OC(CO)C(O)C2O)c(=O)[nH]1 (stereo not given) and report it.
Response line: > 1000 µM

Prompt line: Find the measured TGI of COC(=O)C(C)Sc1nc2cc(Cl)ccc2s1 (stereo not given) and report it.
Response line: > 100 µM

Prompt line: Find the measured TGI of NC(N)=N/N=C/c1nc2sccn2c1[N+](=O)[O-] and report it.
Response line: > 100 µM

Prompt line: Find the measured TGI of O=C1OS2(OCc3cccc4cccc2c34)c2ccccc21 (stereo not given) and report it.
Response line: > 100 µM

Prompt line: Find the measured TGI of C=CC(=O)N1CCCC(n2nc(-c3ccc(Oc4ccccc4)cc3)c3c(N)ncnc32)C1 (stereo not given) and report it.
Response line: 15.8 µM

Prompt line: Find the measured TGI of COS(=O)c1cc(Cl)cc(Cl)c1O (stereo not given) and report it.
Response line: > 100 µM

Prompt line: Find the measured TGI of COc1cc2nc(-c3ccc(C(F)(F)F)cc3)cc(OCCCN3CCOCC3)c2cc1OC and report it.
Response line: 22.4 µM

Prompt line: Find the measured TGI of CC[N+](C)(CC)CCN1C(=O)c2ccccc2S1(=O)=O and report it.
Response line: > 100 µM

Prompt line: Find the measured TGI of O=[N+]([O-])c1c(/C=N/Nc2ccccc2)oc(-c2ccc3c(c2)OCO3)c1-c1ccc2c(c1)OCO2 and report it.
Response line: > 100 µM

Prompt line: Find the measured TGI of Cc1ccc(O)c(C2=NNC(c3cccc(Br)c3)C2)c1 (stereo not given) and report it.
Response line: > 100 µM

Prompt line: Find the measured TGI of COc1cc(-c2cnn(C)c2)ccc1Nc1ncc2ccnc(N[C@@H](C)C(C)(C)C)c2n1 and report it.
Response line: > 100 µM

Prompt line: Find the measured TGI of COc1ccc2c(c1)sc1nc(-c3ccccc3)c(-c3ccsc3)n12 and report it.
Response line: 64.6 µM
